Recorded Inhibition of ligand binding, Dop. D2L, one value per entry.
biological target: human recombinant dopamine D2L receptor (Homo sapiens); construct: expressed in transfected cells; host or cells: CHO cells; assay: Dopamine D2L radioligand binding ([3H]Spiperone); conditions: percent inhibition of specific binding
Report the figure in % without appending any unit label.

Consider the worked cases shown below.
OC1CCC(N2CCc3c(c4cc(Cl)ccc4n3CCc3ccc(C(F)(F)F)nc3)C2)C1 (stereo not drawn) [Compound 351] : 7
CCCc1ccc(CCn2c3c(c4cc(Cl)ccc42)CN(C)CC3)cn1 [Compound 476] : 30

Note Inhibition of ligand binding, Dop. D2L for the molecule shown: Cc1ccc2c(c1)c1c(n2CC(=O)N2CCCC2)CCN(C)C1 [Compound 257]
−7

Respond only with Inhibition of ligand binding, Dop. D2L recorded for COc1ccc(CCn2c3c(c4cc(Cl)ccc42)CN(C)CC3)cc1 [Compound 336]
82

// fetch Inhibition of ligand binding, Dop. D2L given entry Cc1ccc2c(c1)c1c(n2CC(=O)N2CCCCC2)CCN(C)C1 [Compound 395]
2

Please give measured Inhibition of ligand binding, Dop. D2L of the following entry: CN1CCc2c(c3cc(OC(F)(F)F)ccc3n2CCc2ccc(C(F)(F)F)nc2)C1 [Compound 341]
8

Tell me its Inhibition of ligand binding, Dop. D2L given Cc1ccc2c(n1)c1c(n2CCc2ccc(C(F)(F)F)nc2)CCN(C)C1 [Compound 353] as the entry.
5

State, in one line, measured Inhibition of ligand binding, Dop. D2L of Cc1ccc(CCn2c3c(c4cc(Cl)c(F)cc42)CN(C)CC3)cn1 [Compound 404]
35

Please report the measured Inhibition of ligand binding, Dop. D2L for CN1CCc2c(c3cc(Cl)cc(F)c3n2CCc2ccc(C(F)(F)F)nc2)C1 [Compound 338]
22

====

molecular target: human recombinant serotonin (5-Hydroxytryptamine) 5-HT2C receptor (Homo sapiens, UniProt P28335); construct: expressed in transfected cells; host or cells: CHO-K1 cells; assay: Serotonin 5-HT2C radioligand binding ([3H]Mesulergine); settings: compounds screened at 1 μM; read-out: Inhibition of ligand binding, Ser. 5-HT2C (percent inhibition of specific binding)
Sequence (P28335 33-458): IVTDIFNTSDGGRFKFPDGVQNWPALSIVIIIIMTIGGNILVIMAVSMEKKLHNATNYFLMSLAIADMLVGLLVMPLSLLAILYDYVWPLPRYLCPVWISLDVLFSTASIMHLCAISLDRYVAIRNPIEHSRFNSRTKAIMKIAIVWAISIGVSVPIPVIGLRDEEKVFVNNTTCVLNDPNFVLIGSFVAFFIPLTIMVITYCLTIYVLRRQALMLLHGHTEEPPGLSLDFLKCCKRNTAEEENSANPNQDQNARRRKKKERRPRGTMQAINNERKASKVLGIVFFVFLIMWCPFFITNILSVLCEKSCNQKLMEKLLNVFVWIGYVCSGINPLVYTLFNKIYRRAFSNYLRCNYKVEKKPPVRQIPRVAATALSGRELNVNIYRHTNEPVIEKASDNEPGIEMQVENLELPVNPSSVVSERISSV
In this section we review reported inhibition at 1 µM values for a set of molecules.
Number only, in %; omit the unit.

COc1ccc2c(c1)c1c(n2CCc2nc(-c3ccccc3)cs2)CCN(C)C1 [Compound C1-6] : 90

Give inhibition at 1 µM for the following molecule: CN1CCc2c(c3cc(Br)ccc3n2CC(=O)N2CCCCC2)C1 [Compound 516]
58

Please report the measured inhibition at 1 µM for CN1CCc2c(c3ccccc3n2CCc2noc(-c3ccccc3)n2)C1 [Compound C4-1]
91

Name the recorded inhibition at 1 µM of the item CN1CCc2c(c3ncccc3n2CCc2ccccn2)C1 [Compound 484] in your answer.
31

Give a short answer stating reported inhibition at 1 µM for Cc1ccc(CCn2c3c(c4cc(Br)ccc42)CN(C)CC3)cn1 [Compound 487] .
84

Return inhibition at 1 µM (reported value) for this molecule: CN1CCc2c(c3ccncc3n2CCc2ccncc2)C1 [Compound 483]
9

====

biological target: human recombinant serotonin (5-Hydroxytryptamine) 5-HT2C receptor (Homo sapiens, UniProt P28335); construct: expressed in transfected cells; host or cells: CHO-K1 cells; assay: Serotonin 5-HT2C radioligand binding ([3H]Mesulergine); set-up: concentration or dose not given beside the values; settings: percent inhibition of specific binding
ASSAY READOUT: Inhibition of ligand binding, Ser. 5-HT2C (%)
Numbers only; they are read as %.

Cc1ccc(CCn2c3c(c4cc(C(=O)O)ccc42)CNCC3)cn1 : −5
CCc1ccc(CCn2c3c(c4cc(Cl)ccc42)CN(C)CC3)cn1 : 87
CN1CCc2c(c3cc(Cl)ccc3n2CCC(=O)N2CCOCC2)C1 : 29
CN1CCc2c(c3cc(Cl)ccc3n2CCC(=O)N2CCCC2)C1 : 27

// next entry
Retrieve Inhibition of ligand binding, Ser. 5-HT2C measured for CN1CCc2c(c3cc(Cl)ccc3n2CC(=O)N2CCNC(=O)C2)C1 and print it.
59

====

Listed here are compounds together with their documented inhibition at 1 µM.
biological target: human recombinant dopamine D2L receptor (Homo sapiens, UniProt P14416); construct: expressed in transfected cells; host or cells: CHO cells; assay: Dopamine D2L radioligand binding ([3H]Spiperone); conditions: compounds screened at 1 μM; read-out: Inhibition of ligand binding, Dop. D2L (percent inhibition of specific binding)
Sequence (P14416 whole entry): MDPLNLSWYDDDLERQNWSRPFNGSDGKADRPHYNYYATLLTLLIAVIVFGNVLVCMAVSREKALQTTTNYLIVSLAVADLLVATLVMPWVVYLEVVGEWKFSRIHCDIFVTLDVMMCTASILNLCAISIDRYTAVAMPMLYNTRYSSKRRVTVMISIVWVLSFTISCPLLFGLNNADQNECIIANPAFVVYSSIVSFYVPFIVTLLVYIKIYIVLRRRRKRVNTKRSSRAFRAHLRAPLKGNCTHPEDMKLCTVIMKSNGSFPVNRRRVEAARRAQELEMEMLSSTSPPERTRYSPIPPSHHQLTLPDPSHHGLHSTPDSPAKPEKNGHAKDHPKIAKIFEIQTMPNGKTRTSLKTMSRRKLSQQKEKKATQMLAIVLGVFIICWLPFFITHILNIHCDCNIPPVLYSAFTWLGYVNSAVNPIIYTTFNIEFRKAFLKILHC
Supply the numeric figure in %, leaving out any unit text.

Solved cases (4 shown):
CN1CCc2c(c3cc(F)ccc3n2CCc2nc(-c3ccccc3)cs2)C1 [Compound C1-7] : 25
CN1CCc2c(c3cc(Br)ccc3n2CC(=O)N2CCCCC2)C1 [Compound 516] : -4
Cc1ccc(CCn2c3c(c4cc(I)ccc42)CN(C)CC3)cn1 [Compound 485] : 43
CN1CCc2c(c3ccncc3n2CCc2ccccn2)C1 [Compound 481] : 16

The record that follows has no inhibition at 1 µM shown yet.
Supply reported inhibition at 1 µM belonging to this compound: Cc1ccc(CCn2c3c(c4cc(Br)ccc42)CN(C)CC3)cn1 [Compound 487]
42

====

Biological target: human recombinant serotonin (5-Hydroxytryptamine) 5-HT2A receptor (Homo sapiens, UniProt P28223)
Construct: expressed in transfected cells; host or cells: CHO-K1 cells
Experiment: Serotonin 5-HT2A radioligand binding ([3H]Ketanserin)
Conditions: percent inhibition of specific binding
Description: Compounds of the invention were incubated with 0.5 nM [^3H]Ketanserin for 60 minutes at 25° C. Non-specific binding was estimated in the presence of 1 μM Mianserin. Receptor proteins were filtered and washed, the filters were then counted to determine [^3H]Ketanserin specifically bound. […] Biochemical assay results are presented as the percent inhibition of specific binding in Table 6.
ASSAY READOUT: Inhibition of ligand binding, Ser. 5-HT2A (%)
Hi! Could you send only the number? It should be in %, unit omitted.

CCN1CCc2c(c3ccccc3n2CCc2ccc(C)cc2)C1 : 98
CN1CCc2c(c3cc(Cl)ccc3n2CCC(=O)N2CCOCC2)C1 : 46
Cc1ccc2c(c1)c1c(n2CCc2cncc(Cl)c2)CCN(C)C1 : 94
CN1CCc2c(c3cc(Cl)ccc3n2CCn2cccc2)C1 : 97
Cc1ccc2c(c1)c1c(n2CCc2cnc(C)nc2)CCN(C)C1 : 16

# return recorded Inhibition of ligand binding, Ser. 5-HT2A for input Cc1ccc2c(c1)c1c(n2CCc2ccc(C(=O)O)nc2)CCNC1
6

====

biological target: human recombinant histamine H2 receptor (Homo sapiens); construct: expressed in transfected cells; host or cells: CHO-K1 cells; assay: Histamine H2 radioligand binding ([125I]Aminopotentidine); conditions: percent inhibition of specific binding; screened at 1 μM; read-out: Inhibition of ligand binding, Hist. H2
Sequence (P25021 whole entry): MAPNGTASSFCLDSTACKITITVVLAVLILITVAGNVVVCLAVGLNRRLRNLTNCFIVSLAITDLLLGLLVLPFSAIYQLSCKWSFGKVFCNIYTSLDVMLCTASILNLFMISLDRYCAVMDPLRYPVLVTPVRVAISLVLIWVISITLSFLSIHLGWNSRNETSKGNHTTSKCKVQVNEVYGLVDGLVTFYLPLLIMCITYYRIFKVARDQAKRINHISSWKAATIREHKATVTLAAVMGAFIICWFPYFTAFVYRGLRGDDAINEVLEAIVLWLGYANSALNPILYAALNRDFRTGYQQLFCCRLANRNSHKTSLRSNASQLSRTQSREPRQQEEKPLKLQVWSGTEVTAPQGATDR
ASSAY READOUT: inhibition at 1 µM (%)
Answer with a number only, understood to be in %.

Look up and state reported inhibition at 1 µM for Cc1ccc2c(n1)c1c(n2CCc2ccc(C(F)(F)F)nc2)CCN(C)C1
-2

Give me measured inhibition at 1 µM, please, for this compound: CN1CCc2c(c3c(Cl)cccc3n2CCC2CCCCC2)C1
69

Please list inhibition at 1 µM recorded for the compound Cc1ccc2c(c1)c1c(n2CCc2cncnc2)CCN(C)C1
11

Assign inhibition at 1 µM to the following record: CN1CCc2c(c3cc(Cl)ccc3n2CCc2ccccn2)C1
34

Consider the compound Cc1ccc2c(c1)c1c(n2CC(C)c2ccc(F)cc2)CCN(C)C1 (stereo not shown) . State its measured inhibition at 1 µM.
98

Annotate the compound Cc1ccc(CCn2c3c(c4cc(C(C)C)ccc42)CN(C)CC3)cn1 with its measured inhibition at 1 µM.
58

State its inhibition at 1 µM: CN1CCc2c(c3cc(I)ccc3n2CCc2ccccc2F)C1
88

====

Target: human recombinant histamine H1 receptor (Homo sapiens, UniProt P35367)
Construct: expressed in transfected cells; host or cells: CHO cells
Sequence (P35367 whole entry): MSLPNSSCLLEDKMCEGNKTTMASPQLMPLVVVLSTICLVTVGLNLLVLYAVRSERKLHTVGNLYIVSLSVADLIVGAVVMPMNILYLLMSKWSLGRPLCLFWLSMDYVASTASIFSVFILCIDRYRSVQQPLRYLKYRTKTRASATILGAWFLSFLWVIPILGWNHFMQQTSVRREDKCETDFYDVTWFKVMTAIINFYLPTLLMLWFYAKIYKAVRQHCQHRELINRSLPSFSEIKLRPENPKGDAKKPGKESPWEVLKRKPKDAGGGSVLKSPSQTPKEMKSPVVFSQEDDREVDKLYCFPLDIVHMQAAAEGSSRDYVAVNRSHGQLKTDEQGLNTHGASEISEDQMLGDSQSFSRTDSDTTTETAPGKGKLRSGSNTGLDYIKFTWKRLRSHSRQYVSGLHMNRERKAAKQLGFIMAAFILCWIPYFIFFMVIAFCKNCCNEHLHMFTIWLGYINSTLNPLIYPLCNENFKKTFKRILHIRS
Assay: Histamine H1 radioligand binding ([3H]Pyrilamine)
Details: percent inhibition of specific binding; screened at 1 μM; read-out: Inhibition of ligand binding, Hist. H1
Method: To evaluate in radioligand binding assays the activity of compounds of the invention, human recombinant histamine H1 receptor expressed in Chinese hamster ovary (CHO) cells (De Backer M D et al. Biochem. Biophys. Res Comm. 197(3):1601, 1993) in a modified Tris-HCl buffer (50 mM Tris-HCl, pH 7.4, 2 mM MgCl2, 100 mM NaCl, 250 mM Sucrose) were used. […] Receptor proteins were filtered and washed, the filters were then counted to determine [^3H]pyrilamine specifically bound. […]
Catalogue of inhibition at 1 µM values
Output spec: scalar in %, unitless text.

CN1CCc2c(c3cc(Cl)c(F)cc3n2CCc2ccc(C(F)(F)F)nc2)C1 [Compound 343] : 98
Cc1cncc(CCn2c3c(c4cc(C)ccc42)CN(C)CC3)c1 [Compound 429] : 100
CCN1CCc2c(c3ccccc3n2Cc2ccccc2)C1 [Compound 16] : 10
CCc1ccc2c(c1)c1c(n2CCc2cnc(C)nc2)CCN(C)C1 [Compound 362] : 98
Cc1ccc2c(c1)c1c(n2CCc2cnc(C)cn2)CCN(C)C1 [Compound 322] : 89
Cc1ccc2c(c1)c1c(n2CCc2ccc(C)nc2)CCN(C2CC2)C1 [Compound 51] : 94

// output inhibition at 1 µM; input Cc1ccc2c(c1)c1c(n2CCc2cnc(C)nc2)CCN(C)C1 [Compound 323] ; system human recombinant histamine H1 receptor (Homo sapiens, UniProt P35367)
93

Provide the reported inhibition at 1 µM (system: human recombinant histamine H1 receptor (Homo sapiens, UniProt P35367)) for Cc1ccc2c(c1)c1c(n2Cc2ccccc2)CCN(C)C1 [Compound 137]
11

Give inhibition at 1 µM; test system human recombinant histamine H1 receptor (Homo sapiens, UniProt P35367); molecule Cc1ccc(CCn2c3c(c4cc(C(F)(F)F)ccc42)CN(C)CC3)cn1 [Compound 53]
43
